The reported numbers originate from patent US12448433B2.

Answer each item with its documented pIC50.
molecular target: DPB1*14:01; assay: Peptide binding to HLA-DP allele, competition assay
Units for pIC50: none; it is -log10 of a concentration expressed in mol/L.

Entry CC[C@H](C)[C@H](NC(=O)CNC(=O)[C@H](CCSC)NC(=O)[C@H](CC(N)=O)NC(=O)[C@@H](NC(=O)[C@@H](NC(=O)[C@H](Cc1ccccc1)NC(=O)[C@H](CCC(=O)O)NC(=O)[C@@H](N)C(C)C)C(C)C)[C@@H](C)O)C(=O)N[C@H](C(=O)N[C@H](C(=O)N1CCC[C@H]1C(=O)N[C@@H](CC(=O)O)C(=O)N[C@@H](Cc1ccccc1)C(=O)N[C@@H](C)C(=O)O)[C@@H](C)CC)[C@@H](C)CC [Peptide 3563.0007] : pIC50 on DPB1*14:01 = 4.81

Fill in: DPB1*14:01 pIC50 for CC[C@H](C)[C@H](NC(=O)[C@H](CC(N)=O)NC(=O)[C@H](CCCCN)NC(=O)[C@H](CC(C)C)NC(=O)[C@H](Cc1ccccc1)NC(=O)[C@H](CCCNC(=N)N)NC(=O)[C@H](CC(C)C)NC(=O)[C@H](Cc1c[nH]cn1)NC(=O)CNC(=O)[C@@H](N)CCC(=O)O)C(=O)N[C@H](C(=O)N[C@@H](CC(C)C)C(=O)N1CCC[C@H]1C(=O)N[C@H](C(=O)N[C@@H](Cc1ccc(O)cc1)C(=O)O)C(C)C)[C@@H](C)CC [Peptide 3563.0021] = 5.68

Response field pIC50 (DPB1*14:01) for item CC[C@H](C)[C@H](NC(=O)[C@@H](NC(=O)[C@@H](N)CC(C)C)[C@@H](C)CC)C(=O)N[C@@H](CC(N)=O)C(=O)N[C@@H](Cc1c[nH]c2ccccc12)C(=O)N[C@@H](CC(C)C)C(=O)N[C@@H](CCC(N)=O)C(=O)N[C@@H](CCC(=O)O)C(=O)N[C@@H](C)C(=O)N[C@@H](CC(C)C)C(=O)N[C@@H](CO)C(=O)N[C@@H](CO)C(=O)N[C@@H](C)C(=O)N[C@@H](CO)C(=O)N[C@@H](CC(C)C)C(=O)O [Peptide 3563.0015] : 5.02
